From: the supplement of paper PMC12024529

# System: HEK293 WT BDD-FVIII-Gluc
# ASSAY: secreted FVIII-Gluc luciferase Z-score vs DMSO control; higher = more FVIII-Gluc secretion
# PARTICULARS: 5 µM
Values of secreted FVIII-Gluc luciferase Z-score greater than or equal to 0.1 map to met; values below map to not met.

INSERT INTO assay_data (compound, assay_system, assigned_class) VALUES
  ('C/C(=C\CNc1ncnc2nc[nH]c12)CO', 'HEK293 WT BDD-FVIII-Gluc', 'met'),
  ('CC(C)CC(NC(=O)C(NC(=O)NC(Cc1ccccc1)C(=O)O)C1CCN=C(N)N1)C(=O)NC(C=O)Cc1ccccc1 (stereo not drawn)', 'HEK293 WT BDD-FVIII-Gluc', 'met'),
  ('C[C@H](CCC(=O)O)[C@H]1CC[C@H]2[C@@H]3C(=O)C[C@@H]4CC(=O)CC[C@]4(C)[C@H]3CC(=O)[C@]12C', 'HEK293 WT BDD-FVIII-Gluc', 'met'),
  ('O=c1cc(CO)occ1O', 'HEK293 WT BDD-FVIII-Gluc', 'not met'),
  ('CN1CCC[C@H]1c1cccnc1', 'HEK293 WT BDD-FVIII-Gluc', 'met'),
  ('COc1ccc(C(=O)C2C3C4COC(O4)C(=O)C3C3C=Cc4ccccc4N32)c(OC)c1 (stereo not drawn)', 'HEK293 WT BDD-FVIII-Gluc', 'not met'),
  ('O=C1c2ccccc2C(=O)c2c(O)c(O)cc(O)c21', 'HEK293 WT BDD-FVIII-Gluc', 'not met'),
  ('CCn1nc(C(=O)O)c(=O)c2cc3c(cc21)OCO3', 'HEK293 WT BDD-FVIII-Gluc', 'not met'),
  ('CCC(=O)OCC(=O)[C@@]1(OC(=O)CC)[C@@H](C)C[C@H]2[C@@H]3CCC4=CC(=O)C=C[C@]4(C)[C@@]3(F)[C@@H](O)C[C@@]21C', 'HEK293 WT BDD-FVIII-Gluc', 'met'),
  ('C=C1CC23C[C@@]1(O)CCC2C12C=CC(O)C(C)(C(=O)O1)C2[C@@H]3C(=O)O (stereo partly drawn)', 'HEK293 WT BDD-FVIII-Gluc', 'not met'),
  ('C=C1C(=O)O[C@@H]2C3OC3(C)CC/C=C(\C)CC[C@@H]12 (stereo partly drawn)', 'HEK293 WT BDD-FVIII-Gluc', 'not met'),
  ('O[C@@H]1COC2C1OC[C@@H]2O (stereo partly drawn)', 'HEK293 WT BDD-FVIII-Gluc', 'met'),
  ('O=c1c(O)c(-c2cccc(O)c2)oc2ccccc12', 'HEK293 WT BDD-FVIII-Gluc', 'not met'),
  ('O=C1c2ccccc2C(=O)c2c1ccc(O)c2O', 'HEK293 WT BDD-FVIII-Gluc', 'met'),
  ('CC(=O)C1=C(O)C=C2Oc3c(C(C)=O)c(O)c(C)c(O)c3[C@]2(C)C1=O', 'HEK293 WT BDD-FVIII-Gluc', 'met'),
  ('O=c1cc(-c2ccccc2O)oc2cc(O)cc(O)c12', 'HEK293 WT BDD-FVIII-Gluc', 'met'),
  ('C=CCc1ccc(O)c(OC)c1', 'HEK293 WT BDD-FVIII-Gluc', 'not met'),
  ('O=c1cc(-c2cccc(O)c2)oc2cccc(O)c12', 'HEK293 WT BDD-FVIII-Gluc', 'met'),
  ('NC(=O)NCCC[C@H](N)C(=O)O', 'HEK293 WT BDD-FVIII-Gluc', 'not met'),
  ('CN1C(CC(=O)c2ccccc2)CCC[C@H]1CC(O)c1ccccc1 (stereo partly drawn)', 'HEK293 WT BDD-FVIII-Gluc', 'not met'),
  ('Cc1c(-c2ccccc2)oc2cc(O)ccc2c1=O', 'HEK293 WT BDD-FVIII-Gluc', 'not met'),
  ('CCC(C)(C)C(=O)O[C@H]1C[C@@H](C)C=C2C=C[C@H](C)[C@H](CC[C@@H]3C[C@@H](O)CC(=O)O3)[C@H]21', 'HEK293 WT BDD-FVIII-Gluc', 'not met'),
  ('CC(=O)N1C=C(C2CCCCN2)CCC1 (stereo not drawn)', 'HEK293 WT BDD-FVIII-Gluc', 'met'),
  ('Cn1cnc2c1c(=O)[nH]c(=O)n2C', 'HEK293 WT BDD-FVIII-Gluc', 'met'),
  ('O=c1c(O)c(-c2ccc(O)cc2)oc2cc(O)cc(O)c12', 'HEK293 WT BDD-FVIII-Gluc', 'not met'),
  ('C[S+]([O-])CCC(N)C(=O)O (stereo not drawn)', 'HEK293 WT BDD-FVIII-Gluc', 'met'),
  ('CC1C(=O)OC2CC34C5CC(C(C)(C)C)C36C(OC(=O)C6O)OC4(C(=O)O5)C21O (stereo not drawn)', 'HEK293 WT BDD-FVIII-Gluc', 'not met'),
  ('COc1c2ccoc2cc2oc(=O)ccc12', 'HEK293 WT BDD-FVIII-Gluc', 'met'),
  ('C1CCN2CC3CC(CN4CCCC[C@H]34)C2C1 (stereo partly drawn)', 'HEK293 WT BDD-FVIII-Gluc', 'met'),
  ('C=C(CO)C1Cc2c(ccc3c2OC2COc4cc(OC)c(OC)cc4C2C3=O)O1 (stereo not drawn)', 'HEK293 WT BDD-FVIII-Gluc', 'not met'),
  ('CC(=O)Oc1ccc(/C=C/C(=O)CC2OC(Oc3cc(OC(C)=O)c4c(c3)O[C@@H](c3ccc(OC(C)=O)cc3)CC4=O)C(OC(C)=O)C(OC(C)=O)C2OC(C)=O)cc1 (stereo partly drawn)', 'HEK293 WT BDD-FVIII-Gluc', 'met'),
  ('CC1=CC(=O)C2CC1C2(C)C (stereo not drawn)', 'HEK293 WT BDD-FVIII-Gluc', 'met'),
  ('C=C1C(=O)OC2C[C@@]3(C)CCCC(=C)[C@@H]3CC12 (stereo partly drawn)', 'HEK293 WT BDD-FVIII-Gluc', 'not met'),
  ('CC[C@H](/C=C/[C@@H](C)[C@H]1CC[C@H]2[C@@H]3CC=C4C[C@@H](O)CC[C@]4(C)[C@H]3CC[C@]12C)C(C)C', 'HEK293 WT BDD-FVIII-Gluc', 'met'),
  ('Nc1ncnc2c1ncn2C1OC(COP(=O)(O)OP(=O)(O)OP(=O)(O)O)C(O)C1O (stereo not drawn)', 'HEK293 WT BDD-FVIII-Gluc', 'met'),
  ('O=C1OC(C(O)CO)C(O)=C1O (stereo not drawn)', 'HEK293 WT BDD-FVIII-Gluc', 'met'),
  ('CC/C=C\C[C@H]1C(=O)CC[C@@H]1CC(=O)O', 'HEK293 WT BDD-FVIII-Gluc', 'met'),
  ('CCC(C)C(=O)O[C@H]1C[C@@H](C)C=C2C=C[C@H](C)[C@H](CC[C@@H]3C[C@@H](O)CC(=O)O3)[C@H]21 (stereo partly drawn)', 'HEK293 WT BDD-FVIII-Gluc', 'not met'),
  ('c1coc(CNc2ncnc3nc[nH]c23)c1', 'HEK293 WT BDD-FVIII-Gluc', 'met'),
  ('NCC1OC(OC2C(CO)OC(OC3C(O)C(N)CC(N)C3OC3OC(CO)C(O)CC3N)C2O)C(N)C(O)C1OC1OC(CO)C(O)C(O)C1O (stereo not drawn)', 'HEK293 WT BDD-FVIII-Gluc', 'met'),
  ('C=C1CC/C=C(\C)CC[C@@H]2[C@@H]1CC2(C)C', 'HEK293 WT BDD-FVIII-Gluc', 'met'),
  ('C=C1CCC2C(C)(CO)C(O)CCC2(C)C1C/C=C1\C(=O)OCC1O (stereo not drawn)', 'HEK293 WT BDD-FVIII-Gluc', 'not met');
